experiment: Toxicity liver stage against HepG2, at 10uM; assay type: cell-based; set-up: test concentration 10 uM, cell line HepG2-A16-CD81EGFP; conditions: human, HepG2-A16-CD81EGFP cells; read-out: INHIBITION

compound	cytotoxicity at 10 µM, %
O=C(Cc1cc(-c2ccc3c(c2)OCCO3)on1)NCc1ccccn1	26.4
CCc1ncc(C(=O)N(CC)CCOC)cn1	2.24
CN(Cc1ccccc1)CC1CC2(CO1)CN(Cc1cnn(C)c1)C2 (configuration not stated)	9.76
COc1ccccc1N1CCC(CNCc2cccc(C#N)c2)C1 (configuration not stated)	-5.21
COc1c(C2CCCN2C(=O)c2ccc3cc[nH]c3c2)c(C)nn1C (configuration not stated)	-2.74
COCCn1cnnc1CCNc1cc(C)nc2ccnn12	-1.42
Cc1cc2cccc(NC(=O)N3CCC(N4CCSCC4)CC3)c2o1	-3.25
CN(C)C(=O)c1csc(-c2ccoc2)n1	-1.13
CC(=O)N1CCN(Cc2ccsc2)CC2(CC(=O)N(C)C2)C1 (configuration not stated)	-1.27
CN(C)CCOCc1nnc2n1CCN(c1cnccn1)CC2	5.62
Cc1cc(C(=O)N2C[C@@H](C(=O)O)[C@H](C(C)C)C2)cs1	-10.4
O=C(c1ccccn1)N1CC[C@H]2[C@H]1CCN2S(=O)(=O)C1CC1	-123
